- Target or test system: GHSR1a receptor (Homo sapiens, UniProt Q92847)
- Construct: expressed in transfected cells; host or cells: HEK293 (membranes)
- Sequence (Q92847 whole entry): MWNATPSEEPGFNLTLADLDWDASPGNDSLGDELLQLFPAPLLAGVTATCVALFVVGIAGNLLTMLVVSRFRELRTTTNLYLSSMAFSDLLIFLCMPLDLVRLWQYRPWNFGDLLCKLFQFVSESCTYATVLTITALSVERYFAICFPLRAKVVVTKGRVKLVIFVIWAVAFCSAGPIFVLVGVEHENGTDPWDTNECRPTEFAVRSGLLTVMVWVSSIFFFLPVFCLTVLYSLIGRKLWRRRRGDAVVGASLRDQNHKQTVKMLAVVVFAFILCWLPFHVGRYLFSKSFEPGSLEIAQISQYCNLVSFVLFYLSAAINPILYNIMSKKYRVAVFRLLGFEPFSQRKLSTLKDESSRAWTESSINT
- Test protocol: 125I-Ghrelin binding assay
- Details: Binding pKi, displacement of 125I-ghrelin (0.053 nM), membranes of HEK293 cells transfected with GHSR1a; Cheng-Prussoff; '—' not defined
Can you tell me Ki for the items I'm about to list?
# unit: nM | format: bare number

Measured Ki, COc1cccc2c(C(=O)NCc3cccc(C)c3)cn(CCCN3CCN(CCOc4ccc(Cl)cc4)CC3)c12 : 126

Ki measured on COc1cccc2c(C(=O)C3CC3)cn(CCCN3C4CCC3CC(Oc3ccc(Cl)cc3)C4)c12 (centres unmarked) = 158

// sample COc1cccc2c(C(=O)Cc3ccccc3)cn(CCCN3CCC(CCOc4ccc(Cl)cc4)CC3)c12 , its Ki was 251

The molecule listed as CCCOC1CCN(CCCn2cc(C(=O)CC)c3cc(Br)ccc32)CC1 has a reported Ki of 10000

Lab note: measured Ki of COc1cccc2c(C(C)=O)cn(CCCN3CCC(N(C4CC4)S(=O)(=O)c4ccccc4)CC3)c12 was 2510

Field Ki (entry COc1cccc2c(C(=O)C3CC3)cn(CCCN3CCC(Oc4ccc(F)cc4)CC3)c12 ) reads 50.1

Entry COc1cccc2c(C(=O)NCC(C)C)cn(CCCN3CCC(CCOc4ccc(Cl)cc4)CC3)c12 , Ki reported as 158

So for COc1cccc2c(C(=O)NCc3cccc(Cl)c3)cn(CCCN3CCN(CCOc4ccc(Cl)cc4)CC3)c12 , the logged Ki turned out to be 15.8

Summary for this molecule, COc1cccc2c(C(=O)NCc3cccc(Cl)c3)cn(CCCN3C4CCC3CC(Oc3ccc(F)cc3)C4)c12 (centres unmarked) : Ki is 158

The recorded Ki for entry COc1cccc2c(C(=O)NCc3cccc(C)c3)cn(CCCN3C4CCC3CC(CC(=O)c3ccccc3)C4)c12 (centres unmarked) equals 2

The measured Ki associated with COc1cccc2c(C(=O)NCc3cccc(Cl)c3)cn(CCCN3CCCN(CCc4ccccc4)CC3)c12 reads 158

Notebook: COc1cccc2c(C(=O)C3CC3)cn(CCCN3CCCN(Cc4ccc(F)cc4)CC3)c12 , Ki read as 7.94

Documented Ki of COc1cccc2c(C(=O)NCc3cccc(Cl)c3)cn(CCCN3CCC(Oc4ccc(Cl)cc4)CC3)c12 : 631

According to the records, this molecule COc1ccc2[nH]c3c(c2c1)CCN(CCCn1cc(C(C)=O)c2cccc(OC)c21)C3 displays Ki of 1000

Ki reported for this molecule COc1cccc2c(C(=O)NCc3cccc(C)c3)cn(CCCN3[C@@H]4CC[C@H]3CC(CC(=O)c3ccccc3)C4)c12 (some centres unmarked) : 63.1

For record COc1cccc2c(C(=O)NCc3cccc(C)c3)cn(CCCN3CCC(c4nc5ccccc5s4)CC3)c12 the listed Ki is 63.1

Query COc1ccccc1C1CCN(CCCn2cc(C(=O)C3CC3)c3cccc(OC)c32)CC1 yields Ki of 158

So, COc1cccc2c(C(=O)NCC(C)C)cn(CCCN3CCCN(Cc4ccc(F)cc4)CC3)c12 ? Its Ki was 100

The reported Ki of the molecule COc1cccc2c(C(=O)NCc3cccc(C)c3)cn(CCCN3CCCN(Cc4ccccc4Cl)CC3)c12 was 79.4

The molecule COc1cccc2c(C(=O)NCc3cccc(Cl)c3)cn(CCCN3CCN(CCOc4ccccc4)CC3)c12 showed Ki equal to 6.31
